The entries below are paired with their reported IC50 ratio.
# target.or.test.system: T1, Human FM3 (human, UniProt Q9HB89 1-426)
# T1 construct: whole, on cells; Assayed as the membrane fraction of FM3-expressing CHO cells (1.2 mg/mL protein); also called NMUR1; FM3 receptor
# T1 sequence (looked up): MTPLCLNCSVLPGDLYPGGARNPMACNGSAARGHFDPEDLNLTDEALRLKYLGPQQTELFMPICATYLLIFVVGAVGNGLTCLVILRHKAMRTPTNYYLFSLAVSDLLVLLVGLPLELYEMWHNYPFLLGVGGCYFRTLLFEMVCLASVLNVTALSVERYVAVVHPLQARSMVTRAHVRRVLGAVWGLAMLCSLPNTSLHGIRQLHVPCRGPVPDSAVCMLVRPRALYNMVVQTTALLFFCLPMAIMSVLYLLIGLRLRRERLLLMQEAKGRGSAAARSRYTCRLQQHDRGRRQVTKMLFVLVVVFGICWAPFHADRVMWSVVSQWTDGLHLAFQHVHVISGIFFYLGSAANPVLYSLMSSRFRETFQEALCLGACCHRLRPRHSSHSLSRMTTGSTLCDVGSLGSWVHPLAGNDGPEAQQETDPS
# assay.procedure: displacement of 125I-NMU8 from human FM3 CHO membrane fraction; IC50 relative to NMU-8;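 note: binding reaction run for 70 min at 25 °C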
Non-standard residues stand in square brackets, D forms with d. No end group written: not given here. PEG 20 kDa = methoxypolyethylene glycol 20k; PEG 30 kDa = methoxypolyethylene glycol 30k; Arg(Me) = CNC(=N)NCCC[C@H](N)C(=O)O; NMeR = CN[C@@H](CCCNC(=N)N)C(=O)O; NMeL = CN[C@@H](CC(C)C)C(=O)O; NMeA = CN[C@@H](C)C(=O)O; βAla = NCCC(=O)O

{mPEG 30 kDa-βAla}-YFLF[NMeR]PRN-NH2 [PEG30k-NH-β-Ala0,NMeArg5-NMU-8 (Compound M)]
9 ratio to NMU-8 (=1)
[βAla]YFLFRPRD-NH2 (N-terminus assumed; SMILES CC(C)C[C@H](NC(=O)[C@H](Cc1ccccc1)NC(=O)[C@H](Cc1ccc(O)cc1)NC(=O)CCN)C(=O)N[C@@H](Cc1ccccc1)C(=O)N[C@@H](CCCNC(=N)N)C(=O)N1CCC[C@H]1C(=O)N[C@@H](CCCNC(=N)N)C(=O)N[C@@H](CC(=O)O)C(N)=O) [β-Ala0,Asp8-NMU-8 (Compound 12)]
2.4 ratio to NMU-8 (=1)
{PEG 30 kDa-βAla}-YFLFRPRD-NH2 [PEG30k-NH-β-Ala0,Asp8-NMU-8 (Compound L)]
150 ratio to NMU-8 (=1)
[βAla]YFRFRPRN-NH2 (N-terminus assumed; SMILES N=C(N)NCCC[C@H](NC(=O)[C@H](Cc1ccccc1)NC(=O)[C@H](Cc1ccc(O)cc1)NC(=O)CCN)C(=O)N[C@@H](Cc1ccccc1)C(=O)N[C@@H](CCCNC(=N)N)C(=O)N1CCC[C@H]1C(=O)N[C@@H](CCCNC(=N)N)C(=O)N[C@@H](CC(N)=O)C(N)=O) [β-Ala0,Arg3-NMU-8 (Compound 3)]
0.07 ratio to NMU-8 (=1)

Entry {PEG 20 kDa-βAla}-YWLFR[NMeA]RN-NH2 [PEG20k-NH-β-Ala0,Trp2,NMeAla6-NMU-8 (Compound Q)] — recorded IC50 ratio = 1600 ratio to NMU-8 (=1)

Lab note: [βAla]YFQFRPRN-NH2 (N-terminus assumed; SMILES N=C(N)NCCC[C@H](NC(=O)[C@@H]1CCCN1C(=O)[C@H](CCCNC(=N)N)NC(=O)[C@H](Cc1ccccc1)NC(=O)[C@H](CCC(N)=O)NC(=O)[C@H](Cc1ccccc1)NC(=O)[C@H](Cc1ccc(O)cc1)NC(=O)CCN)C(=O)N[C@@H](CC(N)=O)C(N)=O) [β-Ala0,Gln3-NMU-8 (Compound 2)] gave IC50 ratio of 0.31 ratio to NMU-8 (=1)

Form field IC50 ratio, entry {mPEG 20 kDa-βAla}-YF[NMeL]FRP[NMeR]N-NH2 [PEG20k-NH-β-Ala0,NMeLeu3,NMeArg7-NMU-8 (Compound O)] : 75 ratio to NMU-8 (=1)

Looking up {mPEG 30 kDa-βAla}-YFLFRP[Arg(Me)]N-NH2 [PEG30k-NH-β-Ala0,Arg(Me)7-NMU-8 (Compound N)] , I see its IC50 ratio listed as 290 ratio to NMU-8 (=1)
